Below, each of the compounds is paired with its reported viability, T/C value.
System: G-401 tumor spheroids, viability % test/control
Assay: Anticancer human tumor G-401 cell line growth inhibition;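 also: spheroids exposed to compound for 7 days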;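 as to viability, T/C: 100% = DMSO vehicle-treated spheroids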
Conditions: second compound 94.9 pM; first compound 3.16 µM; stronger effect = lower value; spheroids with HUVEC and MSC
Please give a number only; it is taken to be in %.

# example entries with known answers
- compound: "Cc1cc(C)c(CNC(=O)c2cc(-c3ccc(CN4CCOCC4)cc3)cc3c2cnn3C2CCCC2)c(=O)[nH]1 + COc1cc2c(cc1O)CCNC21CSC2c3c(OC(C)=O)c(C)c4c(c3C(COC1=O)N1C(O)C3Cc5cc(C)c(OC)c(O)c5C(C21)N3C)OCO4"
  experimental_system: "G-401 tumor spheroids, viability % test/control"
  quantity_name: "viability, T/C"
  reported_result: 81
- compound: "CC1COCCN1c1cc(-c2ccnn2C)c2ccnc(-c3ccn[nH]3)c2n1 (stereo unspecified) + COc1cc2c(cc1O)CCNC21CSC2c3c(OC(C)=O)c(C)c4c(c3C(COC1=O)N1C(O)C3Cc5cc(C)c(OC)c(O)c5C(C21)N3C)OCO4"
  experimental_system: "G-401 tumor spheroids, viability % test/control"
  quantity_name: "viability, T/C"
  reported_result: 12.9
- compound: "COc1ccc([C@@H](O)c2cc(-c3ncnc4cc(N5CCOCC5)ccc34)c(F)cc2Cl)nn1 + COc1cc2c(cc1O)CCNC21CSC2c3c(OC(C)=O)c(C)c4c(c3C(COC1=O)N1C(O)C3Cc5cc(C)c(OC)c(O)c5C(C21)N3C)OCO4"
  experimental_system: "G-401 tumor spheroids, viability % test/control"
  quantity_name: "viability, T/C"
  reported_result: 9.96
- compound: "COc1cc(C)[nH]c(=O)c1CN1CCc2c(Cl)cc(C(OC)C3COC3)c(Cl)c2C1=O (stereo unspecified) + COc1cc2c(cc1O)CCNC21CSC2c3c(OC(C)=O)c(C)c4c(c3C(COC1=O)N1C(O)C3Cc5cc(C)c(OC)c(O)c5C(C21)N3C)OCO4"
  experimental_system: "G-401 tumor spheroids, viability % test/control"
  quantity_name: "viability, T/C"
  reported_result: 22.7
- compound: "CC(C)n1c(=O)n(C)c2cnc3cc(F)c(-c4ccc(OCCCN5CCCCC5)nc4)cc3c21 + COc1cc2c(cc1O)CCNC21CSC2c3c(OC(C)=O)c(C)c4c(c3C(COC1=O)N1C(O)C3Cc5cc(C)c(OC)c(O)c5C(C21)N3C)OCO4"
  experimental_system: "G-401 tumor spheroids, viability % test/control"
  quantity_name: "viability, T/C"
  reported_result: 23.9

Here is the next item to consider.
State, in one line, measured viability, T/C of [2H]c1nc(C)nc([2H])c1-c1cc(NC[C@@H](C)c2cccc3c(C(=O)NC)ccnc23)ncn1 + COc1cc2c(cc1O)CCNC21CSC2c3c(OC(C)=O)c(C)c4c(c3C(COC1=O)N1C(O)C3Cc5cc(C)c(OC)c(O)c5C(C21)N3C)OCO4
93.9

----------
System: G-401 tumor spheroids, viability % test/control
Assay: Anticancer human tumor G-401 cell line growth inhibition;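 also: spheroids exposed to compound for 7 days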
Conditions: curve of first compound; second compound 100 µM; spheroids with HUVEC and MSC
pIC50: −log10 of the molar value.
Use 6 as the dividing line for pIC50, with the line itself on the Fulfilled side and lower values as Not fulfilled.

Below are worked cases with known answers.
- molecule: "O=C(c1cc(Cc2n[nH]c(=O)c3ccccc23)ccc1F)N1CCN(C(=O)C2CC2)CC1 + Cn1nnc2c(C(N)=O)ncn2c1=O"
  discrete_label: "Fulfilled"
- molecule: "CC(C)n1c(=O)n(C)c2cnc3cc(F)c(-c4ccc(OCCCN5CCCCC5)nc4)cc3c21 + Cn1nnc2c(C(N)=O)ncn2c1=O"
  discrete_label: "Not fulfilled"
- molecule: "[2H]c1nc(C)nc([2H])c1-c1cc(NC[C@@H](C)c2cccc3c(C(=O)NC)ccnc23)ncn1 + Cn1nnc2c(C(N)=O)ncn2c1=O"
  discrete_label: "Not fulfilled"
- molecule: "Cn1ncnc1[C@H]1c2n[nH]c(=O)c3cc(F)cc(c23)N[C@@H]1c1ccc(F)cc1 + Cn1nnc2c(C(N)=O)ncn2c1=O"
  discrete_label: "Fulfilled"
- molecule: "Cc1sc2c(c1C)C(c1ccc(Cl)cc1)=NC(CC(=O)Nc1ccc(O)cc1)c1nnc(C)n1-2 (stereo not given) + Cn1nnc2c(C(N)=O)ncn2c1=O"
  discrete_label: "Fulfilled"
- molecule: "Cc1cc(C)c(CNC(=O)c2cc(-c3ccc(CN4CCOCC4)cc3)cc3c2cnn3C2CCCC2)c(=O)[nH]1 + Cn1nnc2c(C(N)=O)ncn2c1=O"
  discrete_label: "Not fulfilled"
- molecule: "CC1COCCN1c1cc(-c2ccnn2C)c2ccnc(-c3ccn[nH]3)c2n1 (stereo not given) + Cn1nnc2c(C(N)=O)ncn2c1=O"
  discrete_label: "Fulfilled"
- molecule: "CNCc1ccc(-c2cc(-c3nc(-c4ccc(S(=O)(=O)C(C)C)cc4)cnc3N)on2)cc1 + Cn1nnc2c(C(N)=O)ncn2c1=O"
  discrete_label: "Fulfilled"

We next turn to a different molecule, shown below.
Hello, I need to know if COc1cc(C)[nH]c(=O)c1CN1CCc2c(Cl)cc(C(OC)C3COC3)c(Cl)c2C1=O (stereo not given) + Cn1nnc2c(C(N)=O)ncn2c1=O has measured pIC50 not below 6. Thanks!
Fulfilled
